assay: Cytotoxicity against human erythroid progenitor cells after 14 to 16 days by colony formation assay; assay type: cell-based

>  <compound>
CC(C)OC(=O)[C@H](C)NP(=O)(OC[C@H]1O[C@@H](n2ccc(=O)[nH]c2=O)[C@](C)(F)[C@@H]1O)Oc1ccccc1 (stereo partly specified)

>  <CC50>
> 50 µM

$$$$

###

assay: Cytotoxicity against HFF; assay type: cell-based; conditions: human, HFF cells
readout-label: CC50

>  <compound>
CC(C)OC(=O)[C@H](C)NP(=O)(OC[C@H]1O[C@@H](n2ccc(=O)[nH]c2=O)[C@](C)(F)[C@@H]1O)Oc1ccccc1 (stereo partly specified)

>  <value-reported>
> 100 µM

$$$$
